Assay: Stability of the compound in MeOH assessed as compound purity level at 50 uM measured under daylight exposure for 76 days by LC/ESI-MS analysis
Type: physicochemical
Conditions: methanol; read-out: Stability
measure_name: remaining at 1824 h, 50 µM (%)
Report the figure in % without appending any unit label.

-- ask I am curious: what remaining at 1824 h, 50 µM value has been reported for Clc1cc(/N=C/c2ccc3[nH]ncc3c2)cnc1Cl ?
-- reply 68.1

====

Target: Amine oxidase [flavin-containing] B (Homo sapiens)
Sequence (P27338 whole entry): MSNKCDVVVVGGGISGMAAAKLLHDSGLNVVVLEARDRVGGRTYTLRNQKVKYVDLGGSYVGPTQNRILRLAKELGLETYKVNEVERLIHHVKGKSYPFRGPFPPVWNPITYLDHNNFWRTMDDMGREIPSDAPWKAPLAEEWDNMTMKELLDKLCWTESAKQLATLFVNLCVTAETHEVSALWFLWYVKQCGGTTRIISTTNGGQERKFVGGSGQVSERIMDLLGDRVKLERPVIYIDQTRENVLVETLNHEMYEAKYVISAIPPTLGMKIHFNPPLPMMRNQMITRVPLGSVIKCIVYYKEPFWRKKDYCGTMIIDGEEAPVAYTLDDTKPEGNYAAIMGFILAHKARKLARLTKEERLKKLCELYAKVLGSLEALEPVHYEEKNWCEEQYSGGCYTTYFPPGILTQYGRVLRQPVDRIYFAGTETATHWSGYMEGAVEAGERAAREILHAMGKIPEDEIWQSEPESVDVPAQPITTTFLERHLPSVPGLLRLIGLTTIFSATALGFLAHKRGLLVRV
Experiment: Competitive inhibition of human recombinant MAO-B expressed in baculovirus infected BTI-TN-5B1-4 insect cells using p-tyramine as substrate by Dixon- plot analysis
measure_name: pKi
In textbook form, pKi equals minus log to base ten of the concentration in mol/L.

-- ask I am curious: what pKi value has been reported for Cn1ncc2cc(/C=N/c3ccc(Cl)c(Cl)c3)ccc21 ?
-- reply 9.20
